Data provenance: paper PMC10059965

# TARGET_OR_SYSTEM: AChE (Homo sapiens, UniProt P22303)
# Sequence (P22303 32-614): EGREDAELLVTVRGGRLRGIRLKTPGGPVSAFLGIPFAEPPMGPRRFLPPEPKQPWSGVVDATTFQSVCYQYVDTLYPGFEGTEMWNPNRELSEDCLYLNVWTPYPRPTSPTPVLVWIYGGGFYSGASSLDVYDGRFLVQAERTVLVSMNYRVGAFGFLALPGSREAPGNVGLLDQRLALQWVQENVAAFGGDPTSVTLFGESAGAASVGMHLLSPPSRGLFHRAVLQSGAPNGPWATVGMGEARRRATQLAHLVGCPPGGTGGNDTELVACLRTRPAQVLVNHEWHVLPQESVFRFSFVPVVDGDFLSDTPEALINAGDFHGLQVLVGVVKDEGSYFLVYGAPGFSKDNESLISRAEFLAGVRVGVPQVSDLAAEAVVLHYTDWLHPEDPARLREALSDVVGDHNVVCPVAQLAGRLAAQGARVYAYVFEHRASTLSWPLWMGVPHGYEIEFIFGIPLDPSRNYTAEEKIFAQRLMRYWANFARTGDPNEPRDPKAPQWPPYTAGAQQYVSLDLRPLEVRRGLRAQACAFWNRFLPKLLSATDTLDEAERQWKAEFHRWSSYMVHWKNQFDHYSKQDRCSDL
# MEASUREMENT_DESCRIPTION: biochemical
# CONDITION_NOTES: concentration 2 μM
I'd be grateful if you could share measured inhibition at 2 µM for these entries.
Numbers only, in %.

• O=C(O)C1=CC[C@@H](O)[C@H]2CCC[C@@H]12 (relative stereo) = 2.09
• COc1cc(C=O)ccc1O = -1.88
• COc1cc(/C=C/C=C/C(=O)CCc2ccc(O)cc2)ccc1O = -11.9

Query string: Which inhibition at 2 µM is listed for O=CC1=CC[C@@H](O)[C@H]2CCC[C@@H]12 (relative stereo) ?
Result string: -6.07

----------
# TARGET_OR_SYSTEM: AChE (Homo sapiens)
# MEASUREMENT_DESCRIPTION: biochemical
MEASUREMENT_KIND: IC50

Query string: # query: IC50 of entry COc1cc(C=O)ccc1O [Compound 3, vanillin]
Result string: 39.3 µM

----------
# TARGET_OR_SYSTEM: AChE (Homo sapiens, UniProt P22303)
# MEASUREMENT_DESCRIPTION: biochemical
# CONDITION_NOTES: concentration 10 μM
Hi there, I'd appreciate the recorded inhibition at 10 µM for every entry that follows.

Below are worked cases with known answers.
* O=C(O)C1=CC[C@@H](O)[C@H]2CCC[C@@H]12 (relative stereo) | 29.5%
* COc1cc(/C=C/C=C/C(=O)CCc2ccc(O)cc2)ccc1O | 30.8%
* COc1cc(C=O)ccc1O | 6.07%

// below: inhibition at 10 µM requested for another compound
Query string: Look at this compound and give its reported inhibition at 10 µM. O=CC1=CC[C@@H](O)[C@H]2CCC[C@@H]12 (relative stereo)
Result string: 7.74%
